Values compiled from patent US11174245B2.

Target: EGFR wt (Homo sapiens (Human), UniProt P00533)
Sequence (P00533 25-1210): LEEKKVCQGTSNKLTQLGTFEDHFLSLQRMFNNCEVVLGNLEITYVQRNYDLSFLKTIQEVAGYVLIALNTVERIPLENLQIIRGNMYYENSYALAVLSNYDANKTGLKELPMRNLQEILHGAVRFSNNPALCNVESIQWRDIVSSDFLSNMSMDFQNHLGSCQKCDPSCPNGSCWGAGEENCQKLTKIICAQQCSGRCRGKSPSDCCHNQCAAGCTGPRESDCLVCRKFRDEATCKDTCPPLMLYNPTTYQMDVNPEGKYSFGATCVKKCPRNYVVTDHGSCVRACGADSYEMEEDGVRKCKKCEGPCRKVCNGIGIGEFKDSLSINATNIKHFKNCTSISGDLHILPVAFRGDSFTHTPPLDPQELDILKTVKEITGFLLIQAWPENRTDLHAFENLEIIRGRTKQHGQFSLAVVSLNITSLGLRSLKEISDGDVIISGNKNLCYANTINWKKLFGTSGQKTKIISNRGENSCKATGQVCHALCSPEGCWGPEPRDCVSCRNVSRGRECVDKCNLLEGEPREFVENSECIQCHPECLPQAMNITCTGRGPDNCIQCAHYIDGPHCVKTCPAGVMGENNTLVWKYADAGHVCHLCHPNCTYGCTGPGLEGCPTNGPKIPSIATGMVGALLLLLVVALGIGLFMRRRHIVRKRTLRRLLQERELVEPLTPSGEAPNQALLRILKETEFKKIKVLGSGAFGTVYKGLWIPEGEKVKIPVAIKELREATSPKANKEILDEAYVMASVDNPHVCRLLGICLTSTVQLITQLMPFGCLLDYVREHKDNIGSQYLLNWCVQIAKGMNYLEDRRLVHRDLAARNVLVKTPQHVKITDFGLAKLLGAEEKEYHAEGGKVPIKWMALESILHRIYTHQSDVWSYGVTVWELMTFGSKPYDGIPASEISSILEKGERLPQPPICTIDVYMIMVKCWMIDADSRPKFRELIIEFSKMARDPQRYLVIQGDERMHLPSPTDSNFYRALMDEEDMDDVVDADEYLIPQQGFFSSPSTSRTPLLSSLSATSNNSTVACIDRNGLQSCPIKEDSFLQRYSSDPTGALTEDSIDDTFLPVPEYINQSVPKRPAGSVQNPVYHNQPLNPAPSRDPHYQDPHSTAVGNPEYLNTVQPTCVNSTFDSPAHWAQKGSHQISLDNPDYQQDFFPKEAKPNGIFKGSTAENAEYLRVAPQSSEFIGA
Experiment: Biochemical EGFR inhibition assay (TR-FRET, poly-GT substrate), EGFR wt
Conditions: read-out: wt (5 μM ATP) IC50; 5 μM ATP
Procedure: Biochemical EGFR Inhibition Assays Initially, the inhibitory effect of compounds according to the invention is measured in biochemical assays which measure the phosphorylation activity of EGFR enzyme forms on poly-GT substrate in the presence of different concentrations of ATP (5 μM and 100 μM final assay concentration). […] These biochemical EGFR enzyme form compound dose-response assays quantify the kinase activity via phosphorylation of a tagged poly-GT substrate. […]
Measured IC50 by item

Past entries and their recorded results:
Input CC(C)(O)Cn1/c(=N/C(=O)c2ccnc(-c3cccnc3)c2)[nH]c2cc(CCO)ccc21 . Output IC50: > 100 µM

Input Cc1cc(C(=O)/N=c2\[nH]c3ccccc3n2C2CCCS(=O)(=O)C2)cc(-c2cnn(C)c2)n1 (stereo not drawn) . Output IC50: > 100 µM

Next:
Input CC(C)(O)Cn1/c(=N/C(=O)c2ccnc(-c3ccccc3)c2)[nH]c2ccccc21 . Output IC50: > 4 µM
